experimentalSystem: BAZ2A (Homo sapiens)
Construct: T7 phage strains displaying bromodomains were grown in parallel
Sequence (Q9UIF9 1793-1897 limits assumed, species assumed): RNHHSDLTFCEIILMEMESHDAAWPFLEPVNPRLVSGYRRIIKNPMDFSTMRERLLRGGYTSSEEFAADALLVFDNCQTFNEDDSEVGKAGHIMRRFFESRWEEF
assayName: Bromodomain binding assay: BAZ2A
Would you kindly list Kd for each of these compounds?

Batch lookup, Kd per entry.
1. CCOc1cc(C(=O)N2CCC(N3CCCC3)CC2)ccc1Nc1cc2c(cn1)N(C)C(=O)c1ccccc1N2C
2. CCOc1cc(C(=O)N[C@H]2CC[C@H](O)CC2)ccc1Nc1cc2c(cn1)N(C)C(=O)c1ccccc1N2C

Result ::
> 20 µM
> 20 µM

* * *

Would you kindly list inhibition at 1 µM for each of these compounds?
experimentalSystem: ERK5 (Homo sapiens)
Construct: screened for activity against several kinases in Jurkat cells; endogenous in cells; host or cells: Jurkat cell lysate
Sequence (Q13164 whole entry): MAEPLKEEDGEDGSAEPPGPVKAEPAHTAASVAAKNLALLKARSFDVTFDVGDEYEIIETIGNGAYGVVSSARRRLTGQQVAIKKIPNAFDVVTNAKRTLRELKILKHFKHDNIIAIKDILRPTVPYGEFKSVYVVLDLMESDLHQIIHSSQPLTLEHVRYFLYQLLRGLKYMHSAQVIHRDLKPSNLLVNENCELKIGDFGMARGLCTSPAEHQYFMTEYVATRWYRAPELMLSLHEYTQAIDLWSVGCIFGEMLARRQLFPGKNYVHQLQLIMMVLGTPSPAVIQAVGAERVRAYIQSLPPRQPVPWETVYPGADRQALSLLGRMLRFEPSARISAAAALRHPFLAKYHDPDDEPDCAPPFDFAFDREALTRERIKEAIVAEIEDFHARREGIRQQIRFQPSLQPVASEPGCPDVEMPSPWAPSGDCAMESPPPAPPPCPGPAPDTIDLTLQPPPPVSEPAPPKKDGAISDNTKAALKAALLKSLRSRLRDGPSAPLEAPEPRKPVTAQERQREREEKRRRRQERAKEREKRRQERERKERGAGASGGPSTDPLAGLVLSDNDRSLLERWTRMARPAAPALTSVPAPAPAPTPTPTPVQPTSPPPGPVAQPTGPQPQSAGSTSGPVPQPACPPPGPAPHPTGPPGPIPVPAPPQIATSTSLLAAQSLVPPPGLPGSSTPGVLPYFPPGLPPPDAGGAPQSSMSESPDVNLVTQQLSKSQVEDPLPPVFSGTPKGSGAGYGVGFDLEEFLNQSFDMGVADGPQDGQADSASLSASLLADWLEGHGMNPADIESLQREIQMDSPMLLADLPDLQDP
assayName: Probe-based (AX9989 acyl phosphate ATP probe) kinase profiling in Jurkat lysate: ERK5
Type: binding
particulars: screening concentration 1.0 μM; read-out: Kinase inhibition % at indicated screening concentration: ERK5

Worked cases, answers included:
COc1cc(NS(C)(=O)=O)ccc1Nc1cc2c(cn1)N(C)C(=O)c1ccccc1N2C
75 to 90%
CCOc1cc(C(=O)N2CCCCC2)ccc1Nc1cc2c(cn1)N(C)C(=O)c1ccccc1N2C
75 to 90%
CCOc1cc(C(=O)NC2CCOCC2)ccc1Nc1cc2c(cn1)N(C)C(=O)c1ccccc1N2C
50 to 75%
CCOc1cc(C(=O)N2CCCN(C)CC2)ccc1Nc1cc2c(cn1)N(C)C(=O)c1ccccc1N2C
> 90%
Cc1ccccc1Nc1cc2c(cn1)N(C)C(=O)c1ccccc1N2C
50 to 75%
COc1cccnc1Nc1cc2c(cn1)N(C)C(=O)c1ccccc1N2C
> 90%

Batch lookup, inhibition at 1 µM per entry.
1. CN1C(=O)C2CCCCC2N(C)c2cc(NC3CCC(N)CC3)ncc21 (centres unmarked)
2. CN1C(=O)c2occc2N(C)c2cc(N[C@H]3CC[C@H](N)CC3)ncc21
3. CCOc1cc(C(=O)N[C@@H]2CCCOC2)ccc1Nc1cc2c(cn1)N(C)C(=O)c1ccccc1N2C
4. CCOc1cc(C(=O)NC2CC2)ccc1Nc1cc2c(cn1)N(C)C(=O)c1ccccc1N2C

Result ::
1. ≤ 35%
2. 75 to 90%
3. 50 to 75%
4. ≤ 35%

Batch lookup, inhibition at 1 µM per entry.
1. Cc1cc(CO)ccc1Nc1cc2c(cn1)N(C)C(=O)c1ccccc1N2C
2. COC(=O)[C@H]1CC[C@H](Nc2cc3c(cn2)N(C)C(=O)c2ccccc2N3C)CC1

Result ::
1. 75 to 90%
2. 50 to 75%

Batch lookup, inhibition at 1 µM per entry.
1. CCOc1cc(C(=O)NC2CCC(O)CC2)ccc1Nc1cc2c(cn1)N(C)C(=O)c1ccccc1N2C (centres unmarked)
2. CCOc1ccccc1Nc1cc2c(cn1)N(C)C(=O)c1ccccc1N2C

Result ::
["35 to 50%", "50 to 75%"]

Batch lookup, inhibition at 1 µM per entry.
1. CCOc1cc(C(=O)N2CC[C@@H](N(C)C)C2)ccc1Nc1cc2c(cn1)N(C)C(=O)c1ccccc1N2C
2. CCOc1cc(C(=O)N2CCOCC2)ccc1Nc1cc2c(cn1)N(C)C(=O)c1ccccc1N2C
3. CCOc1cc(C(=O)N2CCC(N3CCN(C)CC3)CC2)ccc1Nc1cc2c(cn1)N(C)C(=O)c1ccccc1N2C
4. CN1C(=O)c2ccccc2N(C)c2cc(N[C@H]3CC[C@H](Nc4ncccn4)CC3)ncc21
5. CCOc1cc(C(=O)NCCc2ccncc2)ccc1Nc1cc2c(cn1)N(C)C(=O)c1ccccc1N2C
6. CCOc1cc(C(=O)NCC2CC2)ccc1Nc1cc2c(cn1)N(C)C(=O)c1ccccc1N2C
7. CCOc1cc(C(=O)NCCn2ccnc2)ccc1Nc1cc2c(cn1)N(C)C(=O)c1ccccc1N2C
8. CCOc1cc(C(=O)N(C)CCN(CC)CC)ccc1Nc1cc2c(cn1)N(C)C(=O)c1ccccc1N2C

Result ::
1: > 90%; 2: ≤ 35%; 3: > 90%; 4: 35 to 50%; 5: 50 to 75%; 6: 50 to 75%; 7: > 90%; 8: > 90%

Batch lookup, inhibition at 1 µM per entry.
1. CCOc1cc(C(=O)N2CCN(CCOCCO)CC2)ccc1Nc1cc2c(cn1)N(C)C(=O)c1ccccc1N2C
2. COc1ccc(C(=O)N2CCNCC2)cc1Nc1cc2c(cn1)N(C)C(=O)c1ccccc1N2C
3. CCOc1cc(Cl)ccc1Nc1cc2c(cn1)N(C)C(=O)c1ccccc1N2C
4. CCOc1cc(C(=O)NCCO)ccc1Nc1cc2c(cn1)N(C)C(=O)c1ccccc1N2C
5. COc1c(Nc2cc3c(cn2)N(C)C(=O)c2ccccc2N3C)cccc1C(=O)O
6. CCOc1cc(C(=O)N2CCC(N3CCN(C)CC3)CC2)ccc1Nc1cc2c(cn1)N(C)C(=O)C1CCCCC1N2C (centres unmarked)

Result ::
1: > 90%; 2: 50 to 75%; 3: 35 to 50%; 4: 50 to 75%; 5: ≤ 35%; 6: ≤ 35%

Batch lookup, inhibition at 1 µM per entry.
1. CN1C(=O)C2CCCCC2N(C)c2cc(NC3CCC(O)CC3)ncc21 (centres unmarked)
2. CCOc1cc(C(=O)N2CCCC(O)C2)ccc1Nc1cc2c(cn1)N(C)C(=O)c1ccccc1N2C (centres unmarked)
3. CCOc1cc(C(=O)NCCN(C)C)ccc1Nc1cc2c(cn1)N(C)C(=O)c1ccccc1N2C

Result ::
["≤ 35%", "> 90%", "75 to 90%"]

Just so you know, measured inhibition at 1 µM for Cc1cc(C#N)ccc1Nc1cc2c(cn1)N(C)C(=O)c1ccccc1N2C came out at 50 to 75%
